B1: ZBED1 (parent)
chain: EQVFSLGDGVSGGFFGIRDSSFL

- Variants of: B1
- Measurement Description: protein stability index of a GFP-peptide fusion (GPS, HEK-293T) (PSI 1-6); higher = more stable;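 also: lentivirally expressed fusions sorted by FACS into six bins by GFP to DsRed ratio, PSI derived from sequencing read proportions per bin multiplied by bin number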
- Condition Parameters: c terminus: native
Readings of protein stability index for the listed variants
Format: numeric value only, no unit, no commentary.

Illustrative cases are given below, each with its answer.
# Variant Name, Readout Number
records = [
    ("F4E", 4.55),
    ("G12E", 4.06),
    ("S21K", 4.02),
    ("F4G", 4.16),
    ("F15A", 4.32),
    ("S5W", 1.83),
    ("S20H", 2.76),
    ("V3M", 3.15),
    ("G16N", 3.46),
    ("G9P", 3.29),
]

Then this variant:
### Prompt Respond only with protein stability index recorded for G7H
### Response 3.34
